assay: Short oral absorption (SOA) assay in rats, brain penetration; format: in vivo; conditions: brain, rat, AUCbrain/AUCplasma
metric: Kp
Form rule: numeric answer, no unit written next to it.

[
  {
    "molecule": "Nc1ncnn2c(C3CCC(CO)OC3)nc(-c3ccc(Oc4ccccc4)cc3F)c12 (single isomer, unassigned) [Compound 10]",
    "Kp": 0.38
  },
  {
    "molecule": "Nc1nccn2c(C3CCC(CO)OC3)nc(-c3ccc(Oc4ccccc4)cc3F)c12 (single isomer, unassigned) [Compound 2]",
    "Kp": 1.35
  }
]

// next entry
For the molecule Nc1ncnn2c(C3CCC(CO)OC3)nc(-c3ccc(Oc4cccc(F)c4F)cc3)c12 (stereo not drawn) [Compound 14] , report Kp.
0.32

----------
assay: Short oral absorption (SOA) assay in rats, brain penetration; format: in vivo; settings: rat, Kp,CSF/fu,plasma, read-out: Kp, uu CSF
Listed molecules paired with reported Kp uu
Form rule: numeric answer, no unit written next to it.

These solved cases illustrate the format of a correct answer.
[
  {
    "molecule": "Nc1ncnn2c(C3CCC(CO)OC3)nc(-c3ccc(Oc4ccccc4)cc3F)c12 (single isomer, unassigned) [Compound 10]",
    "observed": 0.56
  },
  {
    "molecule": "Nc1nccn2c(C3CCC(CO)OC3)nc(-c3ccc(Oc4ccccc4)cc3F)c12 (single isomer, unassigned) [Compound 2]",
    "observed": 0.86
  }
]

For the molecule Nc1ncnn2c(C3CCC(CO)OC3)nc(-c3ccc(Oc4cccc(F)c4F)cc3)c12 (stereo not drawn) [Compound 14] , report Kp uu.
0.59

----------
assay: In vitro plasma and brain binding assay (free fractions); assay type: in vitro ADME, rat; conditions: rat plasma free fraction; read-out: Rat fu, pl (%)
Listed compounds paired with reported fraction unbound
Form rule: numeric answer, no unit written next to it.

[
  {
    "compound": "Nc1ncnn2c(C3CCC(CO)OC3)nc(-c3ccc(Oc4cccc(F)c4F)cc3)c12 (stereo not drawn)",
    "fraction unbound": 0.02
  },
  {
    "compound": "Nc1nccn2c(C3CCC(CO)OC3)nc(-c3ccc(Oc4ccccc4)cc3F)c12 (single isomer, unassigned)",
    "fraction unbound": 0.038
  }
]

// next entry
For the compound Nc1ncnn2c(C3CCC(CO)OC3)nc(-c3ccc(Oc4ccccc4)cc3F)c12 (single isomer, unassigned) , report fraction unbound.
0.037

----------
experiment: In vitro human hepatocytes clearance assay; assay type: in vitro ADME
metric: Human Hep Clint (μL/min/10∧6 cells)
# output: bare number, implied unit μL/min/10∧6 cells

These solved cases illustrate the format of a correct answer.
[
  {
    "compound": "Nc1ncnn2c(C3CCC(CO)OC3)nc(-c3ccc(Oc4cccc(F)c4F)cc3)c12 (stereo not drawn) [Compound 14]",
    "units_label": "μL/min/10∧6 cells",
    "observed": 2.5
  },
  {
    "compound": "Nc1ncnn2c1c(-c1ccc(Oc3ccccc3)cc1F)nc2[C@H]1CC[C@H](CO)CC1 [reference compound]",
    "units_label": "μL/min/10∧6 cells",
    "observed": 123.6
  }
]

// next entry
For the compound Nc1ncnn2c(C3CCC(CO)OC3)nc(-c3ccc(Oc4ccccc4)c(F)c3F)c12 (stereo not drawn) [Compound 13] , report Human Hep Clint.
5.9

----------
Listed molecules paired with reported Rat Hep Clint
assay: In vitro rat hepatocytes clearance assay; type: in vitro ADME
# output: bare number, implied unit μL/min/10∧6 cells

[
  {
    "molecule": "Nc1nccn2c(C3CCC(CO)OC3)nc(-c3ccc(Oc4ccccc4)c(F)c3F)c12 (single isomer, unassigned) [Compound 5]",
    "Rat Hep Clint [μL/min/10∧6 cells]": 9.0
  },
  {
    "molecule": "Nc1nccn2c(C3CCC(CO)OC3)nc(-c3ccc(Oc4cccc(F)c4F)cc3)c12 (single isomer, unassigned) [Compound 6]",
    "Rat Hep Clint [μL/min/10∧6 cells]": 8.2
  }
]

For the molecule Nc1ncnn2c(C3CCC(CO)OC3)nc(-c3ccc(Oc4ccccc4)cc3F)c12 (single isomer, unassigned) [Compound 8] , report Rat Hep Clint.
48.5

----------
Listed molecules paired with reported solubility
experiment: DMSO solubility; format: physicochemical
# output: bare number, implied unit µM

These solved cases illustrate the format of a correct answer.
[
  {
    "molecule": "Nc1nccn2c(C3CCC(CO)OC3)nc(-c3ccc(Oc4ccccc4)cc3F)c12 (single isomer, unassigned) [Compound 2]",
    "solubility, µM": 15.1
  },
  {
    "molecule": "Nc1ncnn2c(C3CCC(CO)OC3)nc(-c3ccc(Oc4ccccc4)cc3F)c12 (single isomer, unassigned) [Compound 8]",
    "solubility, µM": 21.0
  },
  {
    "molecule": "Nc1ncnn2c(C3CCC(CO)OC3)nc(-c3ccc(Oc4ccccc4)c(F)c3F)c12 (centres unmarked) [Compound 12]",
    "solubility, µM": 45.7
  },
  {
    "molecule": "Nc1ncnn2c(C3CCC(CO)OC3)nc(-c3ccc(Oc4ccccc4)cc3F)c12 (single isomer, unassigned) [Compound 9]",
    "solubility, µM": 20.3
  },
  {
    "molecule": "Nc1ncnn2c(C3CCC(CO)OC3)nc(-c3ccc(Oc4ccccc4)c(F)c3F)c12 (centres unmarked) [Compound 13]",
    "solubility, µM": 113
  }
]

For the molecule Nc1ncnn2c(C3CCC(CO)OC3)nc(-c3ccc(Oc4ccccc4)cc3F)c12 (single isomer, unassigned) [Compound 10] , report solubility.
20.5

For the molecule Nc1nccn2c(C3CCC(CO)OC3)nc(-c3ccc(Oc4ccccc4)c(F)c3F)c12 (single isomer, unassigned) , report solubility.
61.9

For the molecule Nc1ncnn2c(C3CCC(CO)OC3)nc(-c3ccc(Oc4cccc(F)c4F)cc3)c12 (centres unmarked) , report solubility.
84.0

For the molecule Nc1nccn2c(C3CCC(CO)OC3)nc(-c3ccc(Oc4cccc(F)c4F)cc3)c12 (single isomer, unassigned) , report solubility.
45.8

For the molecule Nc1nccn2c(C3CCC(CO)OC3)nc(-c3ccc(Oc4ccccc4)cc3F)c12 (single isomer, unassigned) [Compound 3] , report solubility.
34.1

----------
target: Recombinant BTK(C481S) (Homo sapiens, UniProt Q06187, C481S); experiment: BTK C481S HTRF kinase assay; conditions: 30 min pre-incubation, 120 min reaction
Sequence (Q06187 whole entry C481S): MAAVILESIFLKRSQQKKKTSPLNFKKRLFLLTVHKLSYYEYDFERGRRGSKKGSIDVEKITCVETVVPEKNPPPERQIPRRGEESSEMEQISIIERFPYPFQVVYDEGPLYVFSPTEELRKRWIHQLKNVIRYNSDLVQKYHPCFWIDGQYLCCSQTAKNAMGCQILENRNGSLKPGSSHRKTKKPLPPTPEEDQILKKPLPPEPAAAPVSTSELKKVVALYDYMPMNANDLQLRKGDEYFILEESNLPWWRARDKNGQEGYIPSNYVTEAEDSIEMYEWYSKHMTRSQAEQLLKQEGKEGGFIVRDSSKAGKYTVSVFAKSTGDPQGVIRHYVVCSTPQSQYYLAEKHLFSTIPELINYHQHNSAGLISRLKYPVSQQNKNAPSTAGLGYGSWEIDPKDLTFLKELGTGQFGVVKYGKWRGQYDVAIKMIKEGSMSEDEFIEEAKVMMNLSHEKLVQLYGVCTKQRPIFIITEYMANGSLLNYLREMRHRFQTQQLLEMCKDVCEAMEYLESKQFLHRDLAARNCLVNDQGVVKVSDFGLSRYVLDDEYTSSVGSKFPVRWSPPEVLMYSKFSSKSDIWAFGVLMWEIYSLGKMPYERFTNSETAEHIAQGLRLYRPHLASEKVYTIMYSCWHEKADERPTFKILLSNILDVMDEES
metric: pIC50
Please treat pIC50 as minus the base-10 logarithm of the molar concentration.

These solved cases illustrate the format of a correct answer.
[
  {
    "molecule": "Nc1nccn2c(C3CCC(CO)OC3)nc(-c3ccc(Oc4cccc(F)c4F)cc3)c12 (single isomer, unassigned) [Compound 7]",
    "assay_target": "Recombinant BTK(C481S) (Homo sapiens, UniProt Q06187, C481S)",
    "observed": 8.82
  },
  {
    "molecule": "Nc1nccn2c(C3CCC(CO)OC3)nc(-c3ccc(Oc4ccccc4)c(F)c3F)c12 (single isomer, unassigned) [Compound 4]",
    "assay_target": "Recombinant BTK(C481S) (Homo sapiens, UniProt Q06187, C481S)",
    "observed": 9.21
  },
  {
    "molecule": "Nc1ncnn2c(C3CCC(CO)OC3)nc(-c3ccc(Oc4cccc(F)c4F)cc3)c12 (stereo not shown) [Compound 15]",
    "assay_target": "Recombinant BTK(C481S) (Homo sapiens, UniProt Q06187, C481S)",
    "observed": 8.21
  },
  {
    "molecule": "Nc1ncnn2c(C3CCC(CO)OC3)nc(-c3ccc(Oc4ccccc4)cc3F)c12 (single isomer, unassigned) [Compound 11]",
    "assay_target": "Recombinant BTK(C481S) (Homo sapiens, UniProt Q06187, C481S)",
    "observed": 8.30
  },
  {
    "molecule": "Nc1ncnn2c(C3CCC(CO)OC3)nc(-c3ccc(Oc4ccccc4)cc3F)c12 (single isomer, unassigned) [Compound 10]",
    "assay_target": "Recombinant BTK(C481S) (Homo sapiens, UniProt Q06187, C481S)",
    "observed": 9.02
  },
  {
    "molecule": "Nc1nccn2c(C3CCC(CO)OC3)nc(-c3ccc(Oc4ccccc4)cc3F)c12 (single isomer, unassigned) [Compound 3]",
    "assay_target": "Recombinant BTK(C481S) (Homo sapiens, UniProt Q06187, C481S)",
    "observed": 8.18
  }
]

For the molecule Nc1ncnn2c(C3CCC(CO)OC3)nc(-c3ccc(Oc4ccccc4)c(F)c3F)c12 (stereo not shown) [Compound 13] , report pIC50.
8.42

----------
molecular target: BTK-C481S in HEK293-BTK(C481S) cells (Homo sapiens, UniProt Q06187, C481S); construct: Full-length cDNAs of BTK containing C481S mutation was generated by mutagenesis; assay: HEK293-BTK(C481S) p-BTK ELISA; conditions: 1.5 hour
metric: pIC50
Please treat pIC50 as minus the base-10 logarithm of the molar concentration.

[
  {
    "molecule": "Nc1ncnn2c(C3CCC(CO)OC3)nc(-c3ccc(Oc4ccccc4)cc3F)c12 (single isomer, unassigned)",
    "assay_target": "BTK-C481S in HEK293-BTK(C481S) cells (Homo sapiens, UniProt Q06187, C481S)",
    "pIC50": 6.77
  },
  {
    "molecule": "Nc1nccn2c(C3CCC(CO)OC3)nc(-c3ccc(Oc4ccccc4)cc3F)c12 (single isomer, unassigned)",
    "assay_target": "BTK-C481S in HEK293-BTK(C481S) cells (Homo sapiens, UniProt Q06187, C481S)",
    "pIC50": 7.15
  },
  {
    "molecule": "Nc1nccn2c(C3CCC(CO)OC3)nc(-c3ccc(Oc4cccc(F)c4F)cc3)c12 (single isomer, unassigned)",
    "assay_target": "BTK-C481S in HEK293-BTK(C481S) cells (Homo sapiens, UniProt Q06187, C481S)",
    "pIC50": 7.12
  },
  {
    "molecule": "Nc1nccn2c(C3CCC(CO)OC3)nc(-c3ccc(Oc4ccccc4)c(F)c3F)c12 (single isomer, unassigned)",
    "assay_target": "BTK-C481S in HEK293-BTK(C481S) cells (Homo sapiens, UniProt Q06187, C481S)",
    "pIC50": 7.07
  },
  {
    "molecule": "Nc1ncnn2c(C3CCC(CO)OC3)nc(-c3ccc(Oc4cccc(F)c4F)cc3)c12 (stereo not drawn)",
    "assay_target": "BTK-C481S in HEK293-BTK(C481S) cells (Homo sapiens, UniProt Q06187, C481S)",
    "pIC50": 7.44
  }
]

// next entry
Write down the reported pIC50 (system: BTK-C481S in HEK293-BTK(C481S) cells (Homo sapiens, UniProt Q06187, C481S)) of Nc1ncnn2c(C3CCC(CO)OC3)nc(-c3ccc(Oc4ccccc4)c(F)c3F)c12 (stereo not drawn)
7.33
